# Test system: PDC 899932-113-R3-J6 complex spheroid viability;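 also: spheroids exposed to agents for seven days before readout; 100% = DMSO vehicle control wells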
# protocol.notes: Anticancer human tumor 899932-113-R3-J6-PDC patient-derived melanoma cell line growth inhibition [RAS]; active = viability on the fitted dose curve at most 10% of control; inactive = the rest
# condition: compound 0.0316 µM
# Excerpt: RAS pathway inhibitors in Combinations in Complex Spheroids A high-throughput screen of multi-cell type tumor spheroids was designed to identify active combinations of RAS pathway inhibitors and targeted small molecules. Complex spheroids include a stromal component modeled by human endothelial cells (HUVEC) and fibroblasts modeled by human mesenchymal stem cells (MSCs). […] Compounds. […] If the clinical Cmax for an agent had not been determined, the highest concentration tested was 10 microM. […]
Can you answer with just one of these options? yes (1) (active), no (0) (inactive)

Inquiry: Recorded call for CCC(CC)c1cc(NC2CCC(N)C2)n2nccc2n1 (stereo not given) ?
Reply text: no (0)

Inquiry: Tell me the recorded outcome of this test for C=CC(=O)Nc1cc(Nc2nccc(-c3cn(C)c4ccccc34)n2)c(OC)cc1N(C)CCN(C)C .
Reply text: no (0)

Inquiry: What call does the record list for CC(C)NCC(C(=O)N1CCN(c2ncnc3c2C(C)CC3O)CC1)c1ccc(Cl)cc1 (stereo not given) ?
Reply text: no (0)

Inquiry: Which outcome did this test record for the compound C#Cc1c(F)ccc2cc(O)cc(-c3ncc4c(N5CC6CCC(C5)N6)nc(OCC56CCCN5CC(F)C6)nc4c3F)c12 (stereo not given) ?
Reply text: no (0)

Inquiry: Fill in: this test's call for Nc1ccn(C2OC(CO)C(O)C2(F)F)c(=O)n1 (stereo not given) is ___
Reply text: no (0)

Inquiry: Which result was noted for this compound in the test: CC1(O)CCCC1n1c(=O)c(C(F)F)cc2cnc(NC3CCN(S(C)(=O)=O)CC3)nc21 (stereo not given)
Reply text: no (0)

Inquiry: Each compound tested received a call. Report the one for CC(=O)OC12COC1CC(O)C1(C)C(=O)C(O)C3=C(C)C(OC(=O)C(O)C(NC(=O)OC(C)(C)C)c4ccccc4)CC(O)(C(OC(=O)c4ccccc4)C21)C3(C)C (stereo not given) .
Reply text: no (0)

Inquiry: Recorded call for Cc1nc(N2CCC3(CC2)COC(C)C3N)c(CO)nc1Sc1ccnc(N)c1Cl (stereo not given) ?
Reply text: no (0)

Inquiry: Called result for O=C(c1ccc(F)c(F)c1Nc1ccc(I)cc1F)N1CC(O)([C@@H]2CCCCN2)C1
Reply text: yes (1)

Inquiry: I'd appreciate the recorded outcome for C[C@@H](NC(=O)c1ncnc(N)c1Cl)c1ncc(C(=O)Nc2cc(C(F)(F)F)c(Cl)cn2)s1 from this test.
Reply text: no (0)

Inquiry: Test call, this compound: C=CC(=O)N1CCN(c2nc(OCC3CCCN3C)nc3c(F)c(-c4nc(N)cc(C)c4C(F)(F)F)c(Cl)cc23)C(C)C1 (stereo not given)
Reply text: no (0)

Inquiry: Hey, what did the test say about CCN1CCN(Cc2ccc(Nc3ncc(F)c(-c4cc(F)c5nc(C)n(C(C)C)c5c4)n3)nc2)CC1 ?
Reply text: no (0)

Inquiry: # outcome recorded in this test, key = CC(Nc1ccc2c(c1)OCCn1cc(N3C(=O)OCC3C(F)F)nc1-2)C(N)=O (stereo not given)
Reply text: no (0)

Inquiry: Tell me the recorded outcome of this test for CC(C)n1nc(-c2ccc3oc(N)nc3c2)c2c(N)ncnc21 .
Reply text: no (0)

Inquiry: Please state the recorded outcome for this compound: NC1c2ccccc2OC12CCN(c1cnc3c(N4CCCc5ncccc54)n[nH]c3n1)CC2 (stereo not given)
Reply text: no (0)
